Task for the reader: assign each of the following sequences its reported self-splicing fitness (ln).
assay-details: self-splicing fitness, log relative to wild type (ln ratio); higher = more splicing; Tetrahymena group I intron in knt gene, E. coli kanamycin selection, DiMSum; sequences stand for … in CUCUCU…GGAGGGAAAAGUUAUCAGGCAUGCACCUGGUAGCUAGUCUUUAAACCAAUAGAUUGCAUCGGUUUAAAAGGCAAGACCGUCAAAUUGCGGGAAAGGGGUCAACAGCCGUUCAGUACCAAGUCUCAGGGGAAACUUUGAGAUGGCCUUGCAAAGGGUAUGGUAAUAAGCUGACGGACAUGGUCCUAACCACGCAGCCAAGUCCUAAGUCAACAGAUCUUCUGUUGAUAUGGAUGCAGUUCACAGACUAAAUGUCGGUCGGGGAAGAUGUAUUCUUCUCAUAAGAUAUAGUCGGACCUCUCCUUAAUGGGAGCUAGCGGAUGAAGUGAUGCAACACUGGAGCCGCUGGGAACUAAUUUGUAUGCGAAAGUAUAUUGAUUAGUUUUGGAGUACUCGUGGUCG;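 also: selection with 25 µg/mL kanamycin versus none on LB agar overnight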
setup-conditions: 37 °C
One number for each entry.

Use the examples below as a reference point.
{"chain": "CUGGAGCAAUAUUACGGACC", "self-splicing fitness (ln)": -2.04}
{"chain": "GUCCAGCAAUAUUACGUCGC", "self-splicing fitness (ln)": 0.0208}
{"chain": "CCCCAGCAAUAUUACGGAAU", "self-splicing fitness (ln)": -2.4}

Go through the items and report each one's self-splicing fitness (ln).
1. GCUAAGCAAUAUUACGCAAC
2. UCUAAGCAAUAUUACGAGAA
3. GAUGAGCAAUAUUACGGACA

1: -0.352; 2: -1.69; 3: -3.08

Go through the items and report each one's self-splicing fitness (ln).
1. AUUGAGCAAUAUUACGGCUG
2. AAUGAGCAAUAUUACGACAG
3. AUGAAGCAAUAUUACGCCUA
4. GACCAGCAAUAUUACGCAAG
5. GUGUAGCAAUAUUACGGCAU
6. CCUAAGCAAUAUUACGCGGU
7. GCUAAGCAAUAUUACGGUAG

1. -1.81
2. -1.85
3. -0.0119
4. -1.15
5. -0.582
6. -3.06
7. -3.35

Go through the items and report each one's self-splicing fitness (ln).
1. AUUCAGCAAUAUUACGGGGG
2. UGUUAGCAAUAUUACGGGGC
3. AUCCAGCAAUAUUACGUAUC
4. AGCGAGCAAUAUUACGAGUG
5. AGCCAGCAAUAUUACGUUCU
6. CAAGAGCAAUAUUACGGUCC
7. GUCGAGCAAUAUUACGUCCC

1: -2.14; 2: -3.32; 3: -2.26; 4: -2.12; 5: -0.266; 6: -1.76; 7: -0.687

Go through the items and report each one's self-splicing fitness (ln).
1. GCAAAGCAAUAUUACGUGAG
2. GGCGAGCAAUAUUACGGGCU
3. AUCCAGCAAUAUUACGUAAU
4. UACCAGCAAUAUUACGGCGG
5. AACUAGCAAUAUUACGCUGA
6. UUGCAGCAAUAUUACGUGCG

1. -0.539
2. -1.23
3. -0.492
4. -0.549
5. -1.91
6. -1.43

Origin of values: the supplement of paper PMC7877785
